# Test Description: yeast display, Sf9 membrane polyspecificity reagent, FACS + sequencing; frameworks hold sequencing errors

- Seq Text: "QDQLEESGGGLVQAGGSLRLSCAASGLTFIQYALGWYRQAPGKERELVAAINSGASTRYADSEKGRFTISRDNAMNTVYLQMNSLKPEDTAVYYCNARLRRYTNRYYKYYYWGQGTLVTVSS"
  polyreactivity (PSR sort gate): "high polyreactivity"
- Seq Text: "QVQLVESGGVLVQAGGSLRLSCAASGFIFPYYAMGWYRPAPGKETELVAAIDQSGDSTYYADSVKGRFTISRDNAKNTVYLQMNSLKPEDTAVFYCAARAVGGVRGYRYDYWGQGTQVTVSS"
  polyreactivity (PSR sort gate): "high polyreactivity"
